System: HOP-62 NSCLC
Assay info: NCI-60 one-dose screen, 48 h (100 = growth as untreated, 0 = no growth, -100 = all killed)
Condition set: 10 µM unless noted
This is part of a sample that, as a whole, favours compounds with a hit. Of some 83,000 tested, about 20% had one in any assay.
Parameter threshold = 90%. Response is met when growth meets or exceeds it, else not met.

INSERT INTO assay_data (compound, class_name) VALUES
  ('FC(F)(F)c1ccc(/C=N/Nc2nnc3n2N=C(c2ccc(Cl)cc2)CS3)cc1', 'not met'),
  ('CCC(=O)NC(O)C(Cl)(Cl)C(C)Cl (stereo not drawn)', 'met'),
  ('Fc1ccc(-c2nnc(N3CCOCC3)c3ccccc23)cc1', 'met'),
  ('CCN(C)CCCOc1ccc(/C(=C(\C)Cc2cccc(OC)c2)c2ccc(OC(C)=O)cc2)cc1', 'met'),
  ('O=C(Cc1ccc(Nc2ccnc(C(F)(F)F)c2)cc1)N/N=C/c1ccccc1O', 'not met'),
  ('Cc1cc(C)c2c(NC(=O)Nc3ccc(Cl)c(Cl)c3)n[nH]c2n1', 'met'),
  ('CCN(CC)CCCC(C)Nc1cnc(C(=O)Nc2cccc3ccc(OC)nc23)cn1 (stereo not drawn)', 'met'),
  ('O=C1OC(c2ccc(-c3ccccc3)cc2)=C/C1=C/c1c(Cl)cccc1Cl', 'not met'),
  ('CCCC(CCC)NCC(O)c1cc(-c2ccc(C(F)(F)F)cc2)nc(C(F)(F)F)c1 (stereo not drawn)', 'not met'),
  ('CCOC(=O)C(Nc1ccccc1)C(=O)OCC', 'met'),
  ('CCNC(=S)N(Cc1ccccc1)Cc1ccccc1', 'met'),
  ('COc1ccc(-c2nsc3c2NC(=O)CC3c2ccc3c(c2)OCO3)cc1 (stereo not drawn)', 'not met'),
  ('O=C(CCc1nc2sc3c(c2c(=O)[nH]1)CCC3)NCc1cn(-c2ccccc2)nc1-c1ccccc1', 'not met'),
  ('Cn1c(=O)c2c3c(oc2c2ccccc21)C(=O)c1ccccc1C3=O', 'not met'),
  ('Oc1ccc(Cl)cc1-c1cc(-c2ccccc2Cl)[nH]n1', 'not met'),
  ('CCCCc1n(Cc2ccc3ccccc3n2)cc[n+]1Cc1ccc2ccccc2n1', 'not met');

====

Tested on: KM12 colon
Assay info: NCI-60 one-dose screen, 48 h
Condition set: 10 µM unless noted
This is part of a sample that, as a whole, favours compounds with a hit. Of some 83,000 tested, about 20% had one in any assay. Calls of active or inactive are those of the source. How the source made its calls: active means growth percent below 10; inactive means the rest.
Classes used: active, inactive

INSERT INTO assay_data (molecule, class_name) VALUES
  ('N#Cc1c(N)c(C(=O)c2ccc3c(c2)OCCO3)n2c1CCCC2', 'inactive'),
  ('C=C(C)C1CCC2(C(=O)O)CCC3(C)C(CCC4C5(C)CCC(O)C(C)(C)C5CCC43C)C12 (stereo unspecified)', 'active'),
  ('CC1=C(C(=O)Nc2ccc(F)cc2)C(c2ccc(C)cc2)C2=C(CC(C)(C)CC2=O)N1 (stereo unspecified)', 'inactive'),
  ('C/C(CC(=O)NNc1ccc([N+](=O)[O-])cc1)=N\Nc1ccc([N+](=O)[O-])cc1', 'inactive'),
  ('COc1cc(Nc2ccnc3ccc(Br)cc23)cc(OC)c1OC', 'inactive'),
  ('CN(C)c1ccc(N2Cc3ccccc3OC3=C2C(=O)c2c(O)ccc(O)c2C3=O)cn1', 'active'),
  ('CCCCN(CCCC)CCCN=c1nc2c(c(N)n1-c1ccccc1)c(=S)n(-c1ccccc1)c(=S)n2-c1ccccc1', 'active'),
  ('CCCc1cc2c(cc1CN(Cc1cc3c(cc1CCC)OCO3)C(=N)OCC)OCO2', 'inactive'),
  ('COc1ccc(Nc2ncccc2C(=O)NCc2cn(Cc3cc(OC)cc(OC)c3)nn2)cc1', 'inactive'),
  ('NC(=S)N/N=C(/c1cccs1)C1CC1', 'inactive'),
  ('CC(C)(C)CC(C)(C)NCc1cc(C(C)(C)C)cc(CNC(C)(C)CC(C)(C)C)c1O', 'inactive'),
  ('CN1CCN(Cc2ccc(NC(=O)c3cnc(F)c(C#Cc4cnc(N)c5ncccc45)c3)cc2C(F)(F)F)CC1', 'inactive'),
  ('Cc1cc(C)cc(CCCCCCCCCCCCCCCCCC(=O)O)c1', 'inactive'),
  ('Oc1ccc(-c2cnc(-c3ccccc3)[nH]2)c(O)c1', 'inactive'),
  ('Cc1cc(C)c2c(NC(=O)Nc3ccc(Cl)c(Cl)c3)n[nH]c2n1', 'inactive'),
  ('Fc1ccc(-c2nnc(N3CCOCC3)c3ccccc23)cc1', 'inactive'),
  ('COc1cccc(CC(C)=C(c2ccc(OCCCN(C)C)cc2)c2ccc(OCCCN(C)C)cc2)c1', 'active'),
  ('C=CCN(CCOC(=O)c1ccc([N+](=O)[O-])cc1)CCOC(=O)c1ccc([N+](=O)[O-])cc1', 'inactive'),
  ('c1ccc(C2=Nc3ccccc3SC2)cc1', 'inactive'),
  ('COc1cc(C2Nc3ccccc3S2)cc(CN2CCOCC2)c1O (stereo unspecified)', 'inactive'),
  ('CCCCCCCCCCCCCCCCS(=O)(=O)Nc1cc(C(=O)NN)cc(C(=O)NN)c1', 'inactive'),
  ('CC(C)CC(NC(=O)OCC1c2ccccc2-c2ccccc21)C(=O)O (stereo unspecified)', 'inactive'),
  ('COc1ccc(/C(=C\c2cc(OC)c(OC)c(OC)c2)C(=O)N2CCCNCC2)cc1', 'inactive'),
  ('F', 'active'),
  ('O=C1c2ccccc2C(=O)c2c1oc1ccc3ccccc3c21', 'inactive'),
  ('CCCCCCCCNC(C)C(O)c1ccc(SC(C)C)cc1 (stereo unspecified)', 'active');
